meta.source: paper PMC10395006

Test system: HepG2 cells
READOUT LABEL: IC50 (µM)
Provide only the numeric value, understood in µM.

OC1CCC([C@@H](CC2CCCCN2)C2CCCCC2)CC1 (stereo in doubt) [cis-OH-Phx] ... 90

Next:
// query IC50 value for entry O[C@H]1CC[C@H](C(CC2CCCCN2)C2CCCCC2)CC1 (stereo partly drawn) [trans-OH-Phx] 56

* * *

Assay: CellTiter-Blue cell viability assay
Settings: human, HepG2 cells
READOUT LABEL: IC50 at 24 h (µM)
Enter your answer as a number in µM; do not include the unit.

Can you share its IC50 at 24 h? I mean this compound: C1CCC(C(CC2CCCCN2)C2CCCCC2)CC1 (stereo not shown) 8
